The following compounds are listed with their measured pIC50 values.
- TEST_TARGET: Serine/threonine-protein kinase Chk1 (Homo sapiens, UniProt O14757)
- Sequence (O14757 whole entry): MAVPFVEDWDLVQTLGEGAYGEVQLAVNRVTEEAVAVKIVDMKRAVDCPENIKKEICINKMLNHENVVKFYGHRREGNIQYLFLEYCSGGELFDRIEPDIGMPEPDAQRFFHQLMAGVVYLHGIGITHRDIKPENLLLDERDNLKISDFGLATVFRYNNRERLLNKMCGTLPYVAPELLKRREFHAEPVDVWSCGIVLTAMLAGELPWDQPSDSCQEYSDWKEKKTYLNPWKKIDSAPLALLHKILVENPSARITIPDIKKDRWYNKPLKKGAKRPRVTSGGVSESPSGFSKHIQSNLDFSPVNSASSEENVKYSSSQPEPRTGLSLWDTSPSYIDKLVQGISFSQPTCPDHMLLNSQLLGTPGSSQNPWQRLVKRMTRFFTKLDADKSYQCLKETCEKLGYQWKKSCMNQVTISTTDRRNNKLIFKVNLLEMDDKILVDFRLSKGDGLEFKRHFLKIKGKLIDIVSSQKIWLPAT
- MEASUREMENT_PROTOCOL: Inhibition of recombinant Chk1
Bear in mind: pIC50 is minus log10 of a mol/L concentration; give just that figure.

CC(=O)Nc1cc2c(cc1Cl)NC(=O)Nc1cnc(C#N)c(n1)OCCCCCO2    8.15

-- ask Consider the compound N#Cc1ncc2nc1OCCCCCOc1cc(NCc3cncs3)c(Cl)cc1NC(=O)N2 and give its measured pIC50.
-- reply 8.22

-- ask Consider the compound N#Cc1ncc2nc1OCCCCCOc1cc(OCc3ccncc3)c(Cl)cc1NC(=O)N2 and give its measured pIC50.
-- reply 7.92

---

- TEST_TARGET: Serine/threonine-protein kinase Chk1 (Homo sapiens)
- MEASUREMENT_PROTOCOL: Inhibition of recombinant Chk1
pIC50: −log10 of the molar value.
Binary classification by pIC50, with 8 as an inclusive lower bound for YES; all other cases are NO.

Reference set, count: 8
N#Cc1ncc2nc1OCCCCCOc1cc(N)c(Cl)cc1NC(=O)N2    YES
N#Cc1ncc2nc1OCCCCCOc1cc(N(CCO)CCO)c(Cl)cc1NC(=O)N2    YES
N#Cc1ncc2nc1OCCCCCOc1cc(OCCCN)c(Cl)cc1NC(=O)N2    YES
N#Cc1ncc2nc1OCCCCCOc1cc(OCc3ccccn3)c(Cl)cc1NC(=O)N2    NO
CCNc1cc2c(cc1Cl)NC(=O)Nc1cnc(C#N)c(n1)OCCCCCO2    YES
N#Cc1ncc2nc1OCCCCCOc1cc(NCc3c[nH]cn3)c(Cl)cc1NC(=O)N2    NO
CC(C)CCCOc1cc2c(cc1Cl)NC(=O)Nc1cnc(C#N)c(n1)OCCCCCO2    NO
CNc1cc2c(cc1Cl)NC(=O)Nc1cnc(C#N)c(n1)OCCCCCO2    YES

-- ask Assess whether reported pIC50 for N#Cc1ncc2nc1OCCCCCOc1cc(NC(=O)CCNC3CCCC3)c(Cl)cc1NC(=O)N2 sits at 8 or higher.
-- reply YES

-- ask Assess whether reported pIC50 for Cn1cncc1CNc1cc2c(cc1Cl)NC(=O)Nc1cnc(C#N)c(n1)OCCCCCO2 sits at 8 or higher.
-- reply YES

---

- TEST_TARGET: Calcium/calmodulin-dependent protein kinase type IV (Homo sapiens)
- Sequence (Q16566 whole entry): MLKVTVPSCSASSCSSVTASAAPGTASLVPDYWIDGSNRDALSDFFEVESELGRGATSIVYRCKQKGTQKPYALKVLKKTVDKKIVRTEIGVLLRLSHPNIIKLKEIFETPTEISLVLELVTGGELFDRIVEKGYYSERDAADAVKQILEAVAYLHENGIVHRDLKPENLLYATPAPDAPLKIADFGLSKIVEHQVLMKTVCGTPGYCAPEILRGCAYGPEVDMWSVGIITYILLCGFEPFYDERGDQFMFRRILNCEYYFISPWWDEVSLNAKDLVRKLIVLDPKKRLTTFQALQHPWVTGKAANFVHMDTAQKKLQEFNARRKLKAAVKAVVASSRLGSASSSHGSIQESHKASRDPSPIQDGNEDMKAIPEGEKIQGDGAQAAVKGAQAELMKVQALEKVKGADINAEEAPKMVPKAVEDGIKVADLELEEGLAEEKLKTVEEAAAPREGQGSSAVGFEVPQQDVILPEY
- MEASUREMENT_PROTOCOL: Inhibition of Camk4
pKi: −log10 of the molar value.
ENDPOINT_NAME: pKi

-- ask Consider the compound CS(=O)(=O)Nc1cc2c(cc1Cl)NC(=O)Nc1cnc(C#N)c(n1)OCCCCCO2 and give its measured pKi.
-- reply < 5.00

-- ask Consider the compound N#Cc1ncc2nc1OCCCCCOc1cc(OCCCO)c(Cl)cc1NC(=O)N2 and give its measured pKi.
-- reply < 5.00

-- ask Consider the compound N#Cc1ncc2nc1OCCCCCOc1cc(CCCO)c(Cl)cc1NC(=O)N2 and give its measured pKi.
-- reply < 5.00

---

- System: HeLa
- MEASUREMENT_PROTOCOL: Cytotoxicity against HeLa cells by MTS assay
- Assay type: functional, cell-based, Homo sapiens
- PROTOCOL_CONDITIONS: Homo sapiens, HeLa; read-out: EC50
pEC50: −log10 of the molar value.
ENDPOINT_NAME: pEC50

Check out these entries, answers already filled in.
N#Cc1ncc2nc1OCCCCCOc1cc(O)c(Cl)cc1NC(=O)N2    < 4.23
N#Cc1ncc2nc1OCCCCCOc1cc(OCCO)c(Cl)cc1NC(=O)N2    < 4.23
N#Cc1ncc2nc1OCCCCCOc1cc(CCCO)c(Cl)cc1NC(=O)N2    4.54

-- ask Consider the compound N#Cc1ncc2nc1OCCCCCOc1cc(N)c(Cl)cc1NC(=O)N2 and give its measured pEC50.
-- reply < 4.23

-- ask Consider the compound N#Cc1ncc2nc1OCCCCCOc1cc(NCc3cncs3)c(Cl)cc1NC(=O)N2 and give its measured pEC50.
-- reply < 4.23

-- ask Consider the compound CS(=O)(=O)Nc1cc2c(cc1Cl)NC(=O)Nc1cnc(C#N)c(n1)OCCCCCO2 and give its measured pEC50.
-- reply < 4.23

---

- TEST_TARGET: Serine/threonine-protein kinase Chk1 (Homo sapiens)
- MEASUREMENT_PROTOCOL: Inhibition of recombinant Chk1
The following compounds are listed with their measured IC50 values.
Express the reported value numerically, then name its unit.

Check out these entries, answers already filled in.
N#Cc1ncc2nc1OCCCCCOc1cc(NCc3ccncc3)c(Cl)cc1NC(=O)N2    13 nM
N#Cc1ncc2nc1OCCCCCOc1cc(NCc3cccnc3)c(Cl)cc1NC(=O)N2    12 nM
CCN(CC)CC#Cc1cc2c(cc1Cl)NC(=O)Nc1cnc(C#N)c(n1)OCCCCCO2    2 nM
COCCOc1cc2c(cc1Cl)NC(=O)Nc1cnc(C#N)c(n1)OCCCCCO2    5 nM
N#Cc1ncc2nc1OCCCCCOc1cc(NCCO)c(Cl)cc1NC(=O)N2    2 nM
CCOc1cc2c(cc1Cl)NC(=O)Nc1cnc(C#N)c(n1)OCCCCCO2    6 nM

-- ask Consider the compound N#Cc1ncc2nc1OCCCCOc1ccc(Cl)cc1NC(=O)N2 and give its measured IC50.
-- reply 6 nM

-- ask Consider the compound N#Cc1ncc2nc1OCCCCCOc1cc(OCCn3ccnc3)c(Cl)cc1NC(=O)N2 and give its measured IC50.
-- reply 3 nM

-- ask Consider the compound CC(C)(O)C#Cc1cc2c(cc1Cl)NC(=O)Nc1cnc(C#N)c(n1)OCCCCCO2 and give its measured IC50.
-- reply 109 nM

-- ask Consider the compound N#Cc1ncc2nc1OCCCCCOc1cc(CC(O)CO)c(Cl)cc1NC(=O)N2 (stereo not given) and give its measured IC50.
-- reply 5 nM

---

- TEST_TARGET: Serine/threonine-protein kinase Chk1 (Homo sapiens)
- MEASUREMENT_PROTOCOL: Inhibition of recombinant Chk1
The following compounds are listed with their measured IC50 values.
Write down the numeric answer in nM and omit the unit.

Check out these entries, answers already filled in.
N#Cc1ncc2nc1OCCCCCOc1cc(NCc3cnco3)c(Cl)cc1NC(=O)N2    7
N#Cc1ncc2nc1OCCCCCOc1ccc(Cl)cc1NC(=O)N2    7

-- ask Consider the compound CN(C)CCOc1cc2c(cc1Cl)NC(=O)Nc1cnc(C#N)c(n1)OCCCCCO2 and give its measured IC50.
-- reply 1

-- ask Consider the compound N#Cc1ncc2nc1OCCCCCCOc1ccc(Cl)cc1NC(=O)N2 and give its measured IC50.
-- reply 28

---

- TEST_TARGET: Mitogen-activated protein kinase 13 (Homo sapiens)
- Sequence (O15264 whole entry): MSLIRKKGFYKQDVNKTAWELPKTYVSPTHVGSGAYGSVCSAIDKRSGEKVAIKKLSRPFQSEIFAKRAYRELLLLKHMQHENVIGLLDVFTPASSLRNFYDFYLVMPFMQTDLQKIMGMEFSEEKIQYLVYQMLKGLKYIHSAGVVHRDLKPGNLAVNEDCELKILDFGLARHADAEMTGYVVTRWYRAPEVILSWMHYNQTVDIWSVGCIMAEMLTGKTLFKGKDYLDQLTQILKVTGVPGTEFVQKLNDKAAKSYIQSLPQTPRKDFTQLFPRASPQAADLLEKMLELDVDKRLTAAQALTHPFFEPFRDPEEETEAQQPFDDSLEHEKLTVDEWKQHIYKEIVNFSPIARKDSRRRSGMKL
- MEASUREMENT_PROTOCOL: Inhibition of p38 delta
ENDPOINT_NAME: Ki

-- ask Consider the compound CS(=O)(=O)Nc1cc2c(cc1Cl)NC(=O)Nc1cnc(C#N)c(n1)OCCCCCO2 and give its measured Ki.
-- reply > 10 µM

-- ask Consider the compound N#Cc1ncc2nc1OCCCCCOc1cc(OCCCO)c(Cl)cc1NC(=O)N2 and give its measured Ki.
-- reply > 10 µM

---

- TEST_TARGET: Serine/threonine-protein kinase Sgk1 (Homo sapiens, UniProt O00141)
- Sequence (O00141 whole entry): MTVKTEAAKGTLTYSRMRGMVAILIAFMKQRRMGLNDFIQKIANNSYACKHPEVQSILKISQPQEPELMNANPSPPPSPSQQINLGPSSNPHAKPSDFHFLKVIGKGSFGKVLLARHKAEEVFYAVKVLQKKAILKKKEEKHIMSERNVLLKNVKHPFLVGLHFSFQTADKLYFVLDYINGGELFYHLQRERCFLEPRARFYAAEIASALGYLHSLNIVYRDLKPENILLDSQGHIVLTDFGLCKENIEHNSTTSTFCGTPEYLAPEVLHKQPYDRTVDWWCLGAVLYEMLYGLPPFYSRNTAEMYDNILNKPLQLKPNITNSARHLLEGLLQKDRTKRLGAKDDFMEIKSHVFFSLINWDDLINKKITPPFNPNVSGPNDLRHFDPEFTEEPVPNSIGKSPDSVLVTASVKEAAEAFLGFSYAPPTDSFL
pKi: −log10 of the molar value.
The following compounds are listed with their measured pKi values.

N#Cc1ncc2nc1OCCCCCOc1cc(OCCCO)c(Cl)cc1NC(=O)N2    < 5.00
CS(=O)(=O)Nc1cc2c(cc1Cl)NC(=O)Nc1cnc(C#N)c(n1)OCCCCCO2    < 5.00

-- ask Consider the compound N#Cc1ncc2nc1OCCCCCOc1cc(CCCO)c(Cl)cc1NC(=O)N2 and give its measured pKi.
-- reply < 5.00

---

- TEST_TARGET: Serine/threonine-protein kinase Chk1 (Homo sapiens, UniProt O14757)
- MEASUREMENT_PROTOCOL: Inhibition of recombinant Chk1
The following compounds are listed with their measured pIC50 values.
Bear in mind: pIC50 is minus log10 of a mol/L concentration; give just that figure.

-- ask Consider the compound N#Cc1ncc2nc1OCCCCCOc1cc(C#CCO)c(Cl)cc1NC(=O)N2 and give its measured pIC50.
-- reply 8.00

-- ask Consider the compound O=C1Nc2cncc(n2)OCCCCCOc2ccc(Cl)cc2N1 and give its measured pIC50.
-- reply 8.00

-- ask Consider the compound CN(C)c1cc2c(cc1Cl)NC(=O)Nc1cnc(C#N)c(n1)OCCCCCO2 and give its measured pIC50.
-- reply 8.15

-- ask Consider the compound N#Cc1ncc2nc1OCCCCCOc1cc(O)c(Cl)cc1NC(=O)N2 and give its measured pIC50.
-- reply 8.22

-- ask Consider the compound CC(C)Oc1cc2c(cc1Cl)NC(=O)Nc1cnc(C#N)c(n1)OCCCCCO2 and give its measured pIC50.
-- reply 7.89

-- ask Consider the compound CC(C)Nc1cc2c(cc1Cl)NC(=O)Nc1cnc(C#N)c(n1)OCCCCCO2 and give its measured pIC50.
-- reply 7.96

Where these numbers come from: ChEMBL document CHEMBL1142994
